# COND: buffer; pH 7.4; 200.0 µM
Threshold check on solubility kinetic: at or above 30 µg/mL gives YES, strictly below gives NO.

Reported solubility kinetic reaches at least 30 µg/mL for Cc1onc(C(=O)Nc2cccc(C(F)(F)F)c2)c1[N+](=O)[O-] ?
YES

Reported solubility kinetic reaches at least 30 µg/mL for Cc1snc(SCc2cccc(Cl)c2)c1C#N ?
NO

Reported solubility kinetic reaches at least 30 µg/mL for O=C(O)c1cc(-c2ccccc2)nc(-c2ccccc2)c1 ?
YES

Reported solubility kinetic reaches at least 30 µg/mL for Cc1sc2nc(SCC(=O)O)[nH]c(=O)c2c1C ?
YES

Reported solubility kinetic reaches at least 30 µg/mL for Cc1ccc(Br)cc1S(=O)(=O)Nc1cccnc1 ?
YES

Reported solubility kinetic reaches at least 30 µg/mL for Cc1ccc(C(=O)CSc2nc(N)cc(=O)[nH]2)cc1C ?
NO

Reported solubility kinetic reaches at least 30 µg/mL for CC(C#N)OC(=O)c1cccnc1SCC(=O)Nc1ccc2c(c1)OCO2 (configuration not stated) ?
NO

Reported solubility kinetic reaches at least 30 µg/mL for CCOc1ccccc1NC(=O)N1CCCC1C(=O)NCc1ccco1 (configuration not stated) ?
YES

Reported solubility kinetic reaches at least 30 µg/mL for O=C(Nc1cc(Cl)cc(Cl)c1)c1coc(=O)c(Br)c1 ?
NO

Reported solubility kinetic reaches at least 30 µg/mL for COc1cccc(/C=C(/C(=O)OCC(N)=O)c2ccccc2)c1 ?
YES

Reported solubility kinetic reaches at least 30 µg/mL for Cl.O=C(OCCN1CCOCC1)c1ccccc1Cl ?
YES

Reported solubility kinetic reaches at least 30 µg/mL for O=C(CN1CCCCC1)N1CCN(c2ccccc2)CC1 ?
YES

Reported solubility kinetic reaches at least 30 µg/mL for O=C(Nc1nnc(-c2ccco2)o1)c1ccc(N2C(=O)CCC2=O)cc1 ?
YES

Reported solubility kinetic reaches at least 30 µg/mL for CC(C)(C)C(=O)OCc1nc(-c2ccc3c(c2)OCCO3)cs1 ?
NO

Reported solubility kinetic reaches at least 30 µg/mL for O=C(Nc1ccc(Cl)cc1)C1CCN(C(=O)c2ccco2)CC1 ?
YES

Reported solubility kinetic reaches at least 30 µg/mL for c1ccc(N2CCN(c3nc4ccccc4[nH]3)CC2)nc1 ?
YES

Reported solubility kinetic reaches at least 30 µg/mL for Fc1ccccc1-c1nc2ncccc2o1 ?
YES

Reported solubility kinetic reaches at least 30 µg/mL for O=C(/C=C/c1ccccc1[N+](=O)[O-])OCC(=O)N1CCCC1 ?
YES

Reported solubility kinetic reaches at least 30 µg/mL for Cn1c(N)c(C(=O)COC(=O)c2cc(S(=O)(=O)N3CCOCC3)ccc2F)c(=O)n(C)c1=O ?
YES

Reported solubility kinetic reaches at least 30 µg/mL for Cn1c(=O)c([N+](=O)[O-])c(-n2cnc3ccccc32)c2ccccc21 ?
YES

Reported solubility kinetic reaches at least 30 µg/mL for O=C(O)C1CCCN1C(=O)C12CC3CC(CC(C3)C1)C2 (configuration not stated) ?
YES

Reported solubility kinetic reaches at least 30 µg/mL for COc1ccc([N+](=O)[O-])cc1NS(=O)(=O)c1cccc(C(=O)OC2CCOC2=O)c1 (configuration not stated) ?
YES

Reported solubility kinetic reaches at least 30 µg/mL for CCOc1ccc2nc(N/C(N)=N/S(C)(=O)=O)nc(C)c2c1 ?
NO

Reported solubility kinetic reaches at least 30 µg/mL for N#C/C(=C\c1cccc(Oc2ccccc2)c1)C(=O)N1CCOCC1 ?
YES

Reported solubility kinetic reaches at least 30 µg/mL for O=C(CN1CCN(c2cccc(Cl)c2)CC1)NCc1ccccc1 ?
YES

Reported solubility kinetic reaches at least 30 µg/mL for CCCCN=C1CC(C)(C)CC(=O)/C1=C(/O)CCC ?
YES

Reported solubility kinetic reaches at least 30 µg/mL for Cn1c(N)c(C(=O)Nc2c(Cl)cccc2Cl)sc1=S ?
NO

Reported solubility kinetic reaches at least 30 µg/mL for COc1ccc(C(=O)C2CCCN(Cc3cccc(C)n3)C2)c(OC)c1 (configuration not stated) ?
YES

Reported solubility kinetic reaches at least 30 µg/mL for CN(C)C(=O)C1CC(=O)OC12CCCCC2 (configuration not stated) ?
NO

Reported solubility kinetic reaches at least 30 µg/mL for CSc1nc(C(C)C)ccc1CNC(=O)CC(C)c1ccccc1 (configuration not stated) ?
NO

Reported solubility kinetic reaches at least 30 µg/mL for Cc1ccc(NC(=O)Nc2ccc3c(c2)C(=O)OC3)cc1Cl ?
NO

Reported solubility kinetic reaches at least 30 µg/mL for COC(=O)C1Cc2c([nH]c3ccccc23)C(C(C)C)N1 (configuration not stated) ?
YES

Reported solubility kinetic reaches at least 30 µg/mL for O=C(NCCc1ccccn1)c1ccc(OC(F)F)cc1 ?
YES

Reported solubility kinetic reaches at least 30 µg/mL for Fc1ccccc1OCCCCN1CCCCC1 ?
NO

Reported solubility kinetic reaches at least 30 µg/mL for COCCNC(=O)c1cc(Sc2nnc(C)s2)nc2ccccc12 ?
YES

Reported solubility kinetic reaches at least 30 µg/mL for COc1ccc(CCC(=O)NCCc2cnc[nH]2)cc1 ?
YES

Reported solubility kinetic reaches at least 30 µg/mL for CC(C)[C@H](NC(=O)c1ccc(C(C)(C)C)cc1)C(=O)N1CCN(Cc2ccc3c(c2)OCO3)CC1 ?
NO

Reported solubility kinetic reaches at least 30 µg/mL for COc1ccccc1C(=O)NCC(=O)Nc1cccnc1 ?
YES

Reported solubility kinetic reaches at least 30 µg/mL for COc1ccc(NC(=O)COC(=O)C2C3CC4OC(=O)C2C4C3)cc1 (configuration not stated) ?
YES

Reported solubility kinetic reaches at least 30 µg/mL for CC1=C([N+](=O)[O-])C(c2ccc3c(c2)OCO3)N(C)C(=O)N1C (configuration not stated) ?
YES

Reported solubility kinetic reaches at least 30 µg/mL for CC(C)(C)n1cnc2cc(NC(=O)c3ccco3)ccc21 ?
YES

Reported solubility kinetic reaches at least 30 µg/mL for c1ccc(CN2CCN(c3cnc4ccccc4n3)CC2)cc1 ?
YES

====

Answer each item with its documented solubility kinetic.
# COND: buffer; pH 7.4; 200.0 µM
All answers are understood in µg/mL, so give the number only.

For the compound shown here, COc1ccc(NC(=O)/C(C#N)=C/c2cccnc2)c(OC)c1 , give the reported solubility kinetic.
24.8

For the compound shown here, Cl.O=C(Nc1ccccc1)N1CCNCC1 , give the reported solubility kinetic.
30.6

For the compound shown here, S=C1NCN(Cc2ccco2)CN1CCc1ccccc1 , give the reported solubility kinetic.
9.6

For the compound shown here, CC(C)c1nc2sc3c(SCC(N)=O)ncnc3c2c2c1CCC2 , give the reported solubility kinetic.
0.5

For the compound shown here, Cc1ccccc1NC(=O)c1ccc2c(c1)CCN2S(C)(=O)=O , give the reported solubility kinetic.
6.3

For the compound shown here, O=C(NCCc1ccc(Cl)cc1)c1ccc2ccccc2n1 , give the reported solubility kinetic.
5.9

For the compound shown here, O=C(COC(=O)/C=C/c1ccc(C(F)(F)F)cc1)NCc1ccco1 , give the reported solubility kinetic.
35.7

For the compound shown here, O=C(COC(=O)c1cnc(Cl)c(Cl)c1)c1ccc(F)cc1 , give the reported solubility kinetic.
9.4

For the compound shown here, Cc1cccc(NC(=O)c2ccc3c(c2)CCN3S(C)(=O)=O)c1 , give the reported solubility kinetic.
37.5

For the compound shown here, CN1C(=S)SC(C)(C)C1N(O)C(=O)Nc1ccc(Cl)cc1 (centres undefined) , give the reported solubility kinetic.
4.2

====

# COND: buffer; pH 7.4; 200.0 µM
RESULT TYPE: log10 of solubility kinetic (log10 of the value in µg/mL)
Short version: log10 scale, solubility kinetic, µg/mL.

For the compound shown here, Cc1cc(C(=O)NCc2ccc(F)cc2)c2ccccc2n1 , give the reported log10 of solubility kinetic.
1.20

For the compound shown here, N#CCCN(C(=O)COC(=O)CCc1ccccc1)c1ccccc1 , give the reported log10 of solubility kinetic.
1.65

For the compound shown here, Cc1cccc(C(=O)NCC(c2ccco2)N2CCc3ccccc32)c1 (stereo unspecified) , give the reported log10 of solubility kinetic.
0.91

For the compound shown here, COc1ccc(N2CCN(C(=O)c3ccccc3F)CC2)c([N+](=O)[O-])c1 , give the reported log10 of solubility kinetic.
1.61

For the compound shown here, COC(=O)CSC(=S)N1C(C)CCCC1C (stereo unspecified) , give the reported log10 of solubility kinetic.
1.49

For the compound shown here, CN1CCCN(Cc2ccccc2Br)CC1 , give the reported log10 of solubility kinetic.
1.55

For the compound shown here, COc1cc(NC(=O)Cc2ccccc2)c(C(=O)O)cc1OC , give the reported log10 of solubility kinetic.
1.64

For the compound shown here, COCCCNC(=S)Nc1cccc2ncccc12 , give the reported log10 of solubility kinetic.
1.61

For the compound shown here, c1ccc(-n2cnc3cc(NCc4ccco4)ccc32)cc1 , give the reported log10 of solubility kinetic.
1.55

For the compound shown here, Cc1ccn2cc(-c3ccc(O)c(O)c3)nc2c1.Cl , give the reported log10 of solubility kinetic.
1.25

For the compound shown here, Cc1cc(NC(=O)C(C)Oc2ccc(C(C)(C)C)cc2)no1 (stereo unspecified) , give the reported log10 of solubility kinetic.
0.60

For the compound shown here, CCCC(=O)Nc1ccc(-c2nc3ncccc3o2)cc1 , give the reported log10 of solubility kinetic.
0.32

For the compound shown here, CCNc1nc(NC(C)(C)C)nc(SC)n1 , give the reported log10 of solubility kinetic.
1.56

For the compound shown here, O=C(COC(=O)/C=C/c1ccc(F)cc1)NCc1cccs1 , give the reported log10 of solubility kinetic.
0.94

For the compound shown here, O=C(COc1ccccc1F)Nc1nc(-c2ccccn2)cs1 , give the reported log10 of solubility kinetic.
0.94

For the compound shown here, N#CCc1nc(-c2cc3ccccc3oc2=O)cs1 , give the reported log10 of solubility kinetic.
0.73

For the compound shown here, Cc1ccc2cccc(OCC(=O)NCCC3=CCCCC3)c2n1 , give the reported log10 of solubility kinetic.
1.67

For the compound shown here, Cc1ncc(/C=C2\C(=O)Nc3ccccc32)[nH]1 , give the reported log10 of solubility kinetic.
1.08
